Target: UniProtKB Q99685
Assay: 2-AG assay: MAGL inhibitory activity by hydrolysis of 2-arachidonoylglycerol to arachidonic acid, followed by mass spectrometry
Format: biochemical
Conditions: 15 min preincubation, 30 min reaction at RT, 8 μM 2-arachidonoylglycerol
assay-readout: log10 of IC50 (log10 of the value in nM)
Form field - Quantity: IC50; Unit: nM; Scale: log10

Would you mind telling me what log10 of IC50 value was observed for `O=C1CCC2(CN(C(=O)N3CC4(CC(Cc5ncc(C(F)(F)F)cc5F)C4)C3)C2)N1` ? -0.46

Same read-out for `O=C1NC2(CO1)CN(C(=O)N1CC3(C1)CN(c1ncc(C(F)(F)F)cc1F)C3)C2` ? 1.79

Same read-out for `O=C1CCCC2(CN(C(=O)N3CC4(CN(Cc5ccc(S(=O)(=O)C(F)(F)F)cc5F)C4)C3)C2)N1` ? 3.09

Same read-out for `O=C1CCC2(CN(C(=O)N3CC4(CC(Cc5nccc(C(F)(F)F)n5)C4)C3)C2)N1` ? 0.88

Same read-out for `Cn1ncc(C(F)(F)F)c1CC1CC2(C1)CN(C(=O)N1CC3(COCC(=O)N3)C1)C2` ? 1.35

Same read-out for `O=C1CCC2(CN(C(=O)N3CC4(CCC(S(=O)(=O)c5cccc(C(F)(F)F)c5)CC4)C3)C2)N1` ? 1.57

Same read-out for `O=C1CCC2(CN(C(=O)N3CC4(CC(Cn5cc(C(F)(F)F)ccc5=O)C4)C3)C2)N1` ? 1.41

Same read-out for `O=C1COCC2(CN(C(=O)N3CC4(CC[C@@H](Cc5cccc(S(=O)(=O)C(F)(F)F)c5)C4)C3)C2)N1` ? 0.33

Same read-out for `O=C1COCC2(CN(C(=O)N3CC4(CC(Cc5cnc(C(F)(F)F)nc5)C4)C3)C2)N1` ? 2.36

Same read-out for `O=C1CCC2(CN(C(=O)N3CC4(CC(Cc5cc(C(F)F)[nH]n5)C4)C3)C2)N1` ? 1.22

Same read-out for `O=C1COCC2(CN(C(=O)N3CC4(CC(Cn5ncc(C(F)(F)F)n5)C4)C3)C2)N1` ? 1.89

Same read-out for `O=C1NC2(CO1)CN(C(=O)N1CC3(CC(Cc4ccc(C(F)(F)F)nn4)C3)C1)C2` ? 0.16

Same read-out for `O=C1CCC2(CN(C(=O)N3CC4(CC(Oc5ccc(Cl)cn5)C4)C3)C2)N1` ? 1.55

Same read-out for `O=C1NC2(CO1)CN(C(=O)N1CC3(C1)CN(c1ccc(C(F)(F)F)cn1)C3)C2` ? 1.79

Same read-out for `CS(=O)(=O)c1cc(CC2CC3(C2)CN(C(=O)N2CC4(COC(=O)N4)C2)C3)ccc1C(F)(F)F` ? -0.47

Same read-out for `O=C1NC2(CO1)CN(C(=O)N1CC3(CC(c4ccc(C(F)(F)F)cc4F)C3)C1)C2` ? -1.10

----------
Biological target: MAGL (Homo sapiens, UniProt Q99685)
Sequence (Q99685 whole entry, species assumed): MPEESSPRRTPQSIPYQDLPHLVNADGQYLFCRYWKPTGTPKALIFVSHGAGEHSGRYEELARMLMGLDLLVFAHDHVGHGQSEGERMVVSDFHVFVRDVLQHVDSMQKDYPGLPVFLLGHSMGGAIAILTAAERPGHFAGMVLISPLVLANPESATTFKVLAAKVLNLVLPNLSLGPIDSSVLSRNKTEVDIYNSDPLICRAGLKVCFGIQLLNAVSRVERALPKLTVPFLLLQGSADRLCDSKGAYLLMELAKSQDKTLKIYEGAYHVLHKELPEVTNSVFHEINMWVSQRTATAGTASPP
Experiment: 2-AG assay: MAGL inhibitory activity by hydrolysis of 2-arachidonoylglycerol to arachidonic acid, followed by mass spectrometry
Type: biochemical
Settings: 15 min preincubation, 30 min reaction at RT, 8 μM 2-arachidonoylglycerol
assay-readout: pIC50
Hey, just a heads up that pIC50 is the negative log base 10 of the concentration in molar.

Would you mind telling me what pIC50 value was observed for `N=[S@@](=O)(c1ccc(CC2CC3(C2)CN(C(=O)N2CC4(COCC(=O)N4)C2)C3)cc1)C(F)(F)F` ? 8.05

Same read-out for `O=C1CCC2(CN(C(=O)N3CC4(CC(Cc5ccc6ncnn6c5)C4)C3)C2)N1` ? 6.77

Same read-out for `Cc1nc(C(F)(F)F)c(CN2CC3(C2)CN(C(=O)N2CC4(CCC(=O)N4)C2)C3)s1` ? 5.74

Same read-out for `Cn1ncc(C(F)(F)F)c1CN1CCC2(CC1)CN(C(=O)N1CC3(CCC(=O)N3)C1)C2` ? 8.41

Same read-out for `O=C1CCC2(CN(C(=O)N3CC4(CC(Cc5nc(C(F)(F)F)co5)C4)C3)C2)N1` ? 7.76

Same read-out for `O=C1CCC2(CN(C(=O)N3CC4(CC(Cc5cccc(S(=O)(=O)C(F)(F)F)c5)C4)C3)C2)N1` ? 9.70

Same read-out for `O=C1CCC2(CN(C(=O)N3CC4(CCN(Cc5ccc(S(=O)(=O)C(F)(F)F)cc5)C4)C3)C2)N1` ? 7.06

Same read-out for `CS(=O)(=O)c1ccc(CN2CCC3(CC2)CN(C(=O)N2CC4(CCC(=O)N4)C2)C3)cc1` ? 6.55

Same read-out for `O=C1CCC2(CN(C(=O)N3CC4(CCC(Nc5cnc(C(F)(F)F)cn5)CC4)C3)C2)N1` ? 7.18

Same read-out for `O=C1CCC2(CN(C(=O)N3CC4(CC(Cc5nc(C(F)(F)F)cs5)C4)C3)C2)N1` ? 7.90

Same read-out for `O=C1COCC2(CN(C(=O)N3CC4(CC(Cc5ccc(C(F)(F)F)cn5)C4)C3)C2)N1` ? 8.11

Same read-out for `O=C1NC2(CO1)CN(C(=O)N1CC3(CCC(Cc4ccc(C(F)(F)F)cn4)CC3)C1)C2` ? 9.72

Same read-out for `O=C1CCC2(CN(C(=O)N3CC4(CC(Cn5cc(C6(C(F)(F)F)CC6)cn5)C4)C3)C2)N1` ? 8.39

Same read-out for `O=C1NC2(CO1)CN(C(=O)N1CCC3(CC1)CN(Cc1ccc(C(F)(F)F)cc1F)C3)C2` ? 9.19

Same read-out for `O=C1NC2(CO1)CN(C(=O)N1CC3(CC(NC4(C(F)(F)F)CC4)C3)C1)C2` ? 8.73

Same read-out for `Cc1cc(C(F)(F)F)n(CC2CC3(C2)CN(C(=O)N2CC4(CCC(=O)N4)C2)C3)n1` ? 7.80

Same read-out for `Cc1cc(C(F)(F)F)nn1CC1CC2(C1)CN(C(=O)N1CC3(CCC(=O)N3)C1)C2` ? 8.19

Same read-out for `O=C1CCCC2(CN(C(=O)N3CC4(CCN(Cc5cccc(S(=O)(=O)C(F)(F)F)c5)C4)C3)C2)N1` ? 5.86

Values from patent US20240383904A1
